Each entry below lists one item and its recorded GI50 value.
Test system: RXF 393
Assay: NCI tumour cell line growth inhibition, 48 h
The source made the active and inactive calls. Rule as the data show it: active = GI50 up to about 1.1 µM and inactive = higher.
measured.attribute: GI50

molecule	measured.attribute	result
CCNC(=S)N/N=C/c1ccccn1	GI50	19 µM (inactive)
CC1(C)OC2OC(COC(=O)C(c3ccccc3)c3ccccc3)C3OC(C)(C)OC3C2O1 (stereo not drawn)	GI50	12.3 µM (inactive)
CC(C)(C)[C@H]1NC(=O)CN1C(=O)OCc1ccccc1	GI50	> 100 µM (inactive)
Cc1cc2nnn(C3CCCO3)c2cc1C (stereo not drawn)	GI50	> 100 µM (inactive)
CCO[C@]12C[C@H](OC)[C@@]3(O)CC(C1[C@H]3OCc1ccccc1)C13C4C2[C@H](OC)C1[C@](COC)(CN4CC)[C@H](O)C[C@@H]3OC (stereo partly drawn)	GI50	> 100 µM (inactive)
Oc1cc(O)c2c(c1)O[C@H](c1cc(O)c(O)c(O)c1)[C@H](O)C2 [EPIGALLOCATECHIN]	GI50	15.2 µM (inactive)
C[N+](C)(C)c1ncnc2c1ncn2C1CC(O)C(CO)O1 (stereo not drawn)	GI50	> 100 µM (inactive)
c1ccc(C2N3CCCCC3[C@@H]3c4[nH]c5ccccc5c4CCN23)cc1 (stereo partly drawn)	GI50	47.3 µM (inactive)
Clc1cccc(/C=c2\nc(-c3ccccc3)n3c2nc2ccccc23)c1	GI50	31.9 µM (inactive)
O=C(/C=C/c1ccc(OCCSCCCCCCCCCCSCCOc2ccc(/C=C/C(=O)c3ccc(Cl)cc3)cc2)cc1)c1ccc(Cl)cc1	GI50	43.6 µM (inactive)
O=P(O)(O)CC1OC(CO)C(O)C1O (stereo not drawn)	GI50	> 100 µM (inactive)
CN(C)N1C(=O)C(=O)N(c2cccc3ccccc23)C1=O	GI50	> 10 µM (inactive)
N#C/C(=C\c1ccc2ccccc2c1)c1ccccc1	GI50	38.8 µM (inactive)

---

Tested on: CCRF-CEM
Test: NCI tumour cell line growth inhibition, 48 h
Calls of active or inactive are those of the source. Cut-off read from the data, not from the text of the source: active = GI50 up to about 1.1 µM and inactive = higher.
Outcome codes: active, inactive

molecule	assigned.class
CNC(=O)NCNC(=O)NC	inactive
CC(C)(C)[C@H]1NC(=O)CN1C(=O)OCc1ccccc1	inactive
COc1ccc(/C=C/C(=O)c2cc(CN(C)C)c(O)c(CN(C)C)c2)cc1	inactive
O=C1OC(=O)c2c1c(-c1ccccc1)cn2-c1ccc(Cl)cc1	inactive
CC1(CO)COS(=O)OC1 (configuration not stated)	inactive
COC(=O)C1CCC(=O)C(Sc2ccccc2)C1 (configuration not stated)	inactive
COc1ccc2c(c1)OC[C@@H]1c3cc(O)c(OCc4ccccc4)cc3O[C@H]21	inactive
CC1(C)O/C(=C\c2ccccc2)C(=O)/C(=C/c2ccccc2)O1	inactive
N#Cc1c(-c2ccc(Cl)cc2)c(C#N)c(=O)n(NS(=O)(=O)c2ccccc2)c1O	inactive
CNC(C)Cc1ccccc1O (configuration not stated)	inactive
O=C1Nc2c(Cl)cc(Cl)cc2/C1=N/NC(=O)c1ccccc1O	inactive
CN(N=O)N1C(=O)SCC(c2ccccc2)(c2ccccc2)C1=O	inactive
Nc1nc(SCc2ccccc2[N+](=O)[O-])c2[nH]cnc2n1	inactive
CC1(CO)OC(n2cnc3c(N)ncnc32)C(O)C1O (configuration not stated)	inactive
Cc1ccc(C)c2c1NC(=O)/C2=N\Nc1ccccc1[N+](=O)[O-]	inactive
O=C1C=C2C(=CCOC2O)O1 (configuration not stated)	active
FC(F)(F)c1ccc(/N=N/N2CCCC2)cc1	inactive
COC(=O)C1=CO[C@@H](OC2OC(CO)C(O)C(O)C2O)[C@@H]2[C@H](C)[C@@H](O)[C@@H](O)[C@]12O (some centres not stated)	inactive
COc1ccc(/C=C/C(=O)c2sc(N)nc2C)cc1	inactive
Oc1ccc(-c2n[nH]c(S)n2)cc1	inactive
COc1ccc([C@H]2CC(=O)NCCCCN2)cc1	inactive
COC1(OC)CC(CO)(COc2cc(Cl)nc(N)n2)C1	inactive
CCOC(=O)CCC(NC(=O)Cc1ccc(Nc2nc3cc(F)c(F)cc3nc2C(=O)OCC)cc1)C(=O)OCC (configuration not stated)	inactive
Cc1ccccc1NC(=O)CSc1nnc(Cc2ccccc2)o1	inactive
O=C(O)C12C3CCC(C3)C1(C(=O)O)C1CCC2C1 (configuration not stated)	inactive
CCOC(=O)CC[C@H](NC(=O)[C@H](N)Cc1ccc(N(CCCl)CCCl)cc1)C(=O)OCC	inactive
Cn1nc(-c2ccccc2)c(C(=O)/C=C/c2ccccc2)c(N2CCCC2)c1=O	inactive
CCOC(=O)c1cn2c(n1)sc1cc(Cl)cc(Cl)c12	inactive
Cc1ccc(C2(O)c3ccccc3C(=O)N(C)C2(O)c2ccc(C)cc2)cc1 (configuration not stated)	inactive
CCN1CC2=C(OC(N)=C(C#N)C2c2ccc(Cl)cc2)/C(=C/c2ccc(Cl)cc2)C1 (configuration not stated)	inactive
CN(C)NC(=O)/C(=C/c1ccc(Cl)cc1)NC(=O)c1ccccc1	inactive
N/C(=N\O)N/N=C/c1cc2c(cc1Cl)OCO2	inactive
NC(=O)N/N=C(\CC1OC(=O)c2ccccc21)c1ccco1 (configuration not stated)	inactive
COc1ccc(P2(=S)OC(C)(C)C(C)(C)O2)cc1	inactive
CN(C)N1C(=O)C(=O)N(c2cccc3ccccc23)C1=O	inactive
O=P(O)(O)CC1OC(CO)C(O)C1O (configuration not stated)	inactive
Oc1c2ccccc2c2c3c(cccc13)N=N2	inactive
NN=C(S)Nc1cccc(Cl)c1	inactive
COc1cc(OC)c2c(C)cc(=O)oc2c1	inactive
Cc1ccc2[nH]c3c4c5ccccc5nc-4c[nH]c3c2c1	inactive
COc1cc2c(cc1OC)C(=O)N(NC1=NCCN1)C2=O	inactive
COc1nc(C(Cl)(Cl)Cl)c(Cl)c(OC)c1Cl	inactive
CCOP(=O)(OCC)/C(C#N)=C\c1cccc2ccccc12	inactive
COC1OC2COC1(OC)C1OC(C)(C)OC21 (configuration not stated)	inactive
CC(C)N(C(=O)C12C3C4C1C1C2C3C41C(N)=O)C(C)C (configuration not stated)	inactive
Oc1cc(O)c2c(c1)O[C@H](c1cc(O)c(O)c(O)c1)[C@H](O)C2 [EPIGALLOCATECHIN]	inactive
CC(C)(C)c1cc(/C=C2/NC(=O)NC2=O)cc(C(C)(C)C)c1O	inactive
